B1: tRNA (parent)
chain: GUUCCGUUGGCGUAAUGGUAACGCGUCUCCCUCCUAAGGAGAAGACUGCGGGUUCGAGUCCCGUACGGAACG

# Variants of: B1
# measurement-description: yeast fitness relative to wild type (ratio to wild type); higher = fitter; tRNA-Arg(CCU), competitive growth, 37 C, YPD
Variants at the floor of the assay were thinned out.
Exercise: for every item that follows, state its recorded yeast fitness.
Answers are plain numbers.

Here are 3 variants together with their reported answers.
{"mutant-label": "C22U G38A G68A", "yeast fitness": 0.584}
{"mutant-label": "G10A C24G C62U", "yeast fitness": 0.54}
{"mutant-label": "G12A G67C", "yeast fitness": 0.848}

For each of the variants below, note its yeast fitness.
1. A15C U19A C24G C34G C46U C61A A70U
2. A37U G56C
3. C4G C29G C60A G67C

Reply:
0.639
0.528
0.564

I have 3 variants here; please give me yeast fitness for each one.
1. C5G U19C A57U
2. A40G C62U C66A A70C
3. U2G C4U U16A C27G A42U U53C

Reply:
0.533
0.563
0.564

Batch lookup, yeast fitness per entry.
1. C4A A42U
2. C5U U32C C49G G68C

Reply:
0.716
0.593
